PROTOCOL_TEXT: absolute recovery over mixed-bed multilayer solid-phase extraction; higher = better recovery
ASSAY_CONTEXT: surface water; enrichment method: SPE
Quick rule for you: absolute recovery at 80% or higher means Criterion met, lower means Criterion not met.

**Q:** Please tell me: is the molecule CC(=O)Nc1ccc(S(=O)(=O)[N-]c2nccs2)cc1 at or over 80% in terms of absolute recovery?
**A:** Criterion met

**Q:** Please tell me: is the molecule N#CC1CCCN1C(=O)C[NH2+]C12CC3CC(CC(O)(C3)C1)C2 (centres undefined) at or over 80% in terms of absolute recovery?
**A:** Criterion met

**Q:** Please tell me: is the molecule COc1ccc(C(C[NH3+])C2(O)CCCCC2)cc1 (centres undefined) at or over 80% in terms of absolute recovery?
**A:** Criterion not met

**Q:** Please tell me: is the molecule CC(C)Nc1nc(N)nc(O)n1 [Atrazin-desethyl-2-hydroxy] at or over 80% in terms of absolute recovery?
**A:** Criterion not met

**Q:** Please tell me: is the molecule CC(=O)NCC1CN(c2ccc(N3CCOCC3)c(F)c2)C(=O)O1 (centres undefined) at or over 80% in terms of absolute recovery?
**A:** Criterion met

**Q:** Please tell me: is the molecule CCCS(=O)(=O)[O-] [1-Propanesulfonate] at or over 80% in terms of absolute recovery?
**A:** Criterion not met

**Q:** Please tell me: is the molecule CC(CN1c2ccccc2CCc2ccccc21)C[NH+](C)C (centres undefined) at or over 80% in terms of absolute recovery?
**A:** Criterion met

**Q:** Please tell me: is the molecule CC(O)C(=O)Nc1c(I)c(C(=O)NC(CO)CO)c(I)c(C(=O)NC(CO)CO)c1I (centres undefined) at or over 80% in terms of absolute recovery?
**A:** Criterion not met

**Q:** Please tell me: is the molecule COC(=O)c1ccccc1S(N)(=O)=O at or over 80% in terms of absolute recovery?
**A:** Criterion met

**Q:** Please tell me: is the molecule CC(=O)Nc1c(C)n(C)n(-c2ccccc2)c1=O [4-Acetamidoantipyrin (=N-Acetyl-4-Aminoantipyrin, 4-AAA)] at or over 80% in terms of absolute recovery?
**A:** Criterion met

**Q:** Please tell me: is the molecule COC(=O)c1ccccc1S(=O)(=O)[N-]C(=O)N(C)c1nc(C)nc(OC)n1 at or over 80% in terms of absolute recovery?
**A:** Criterion not met

**Q:** Please tell me: is the molecule C[NH+]1C2CCC1CC(OC(=O)C(CO)c1ccccc1)C2 (centres undefined) at or over 80% in terms of absolute recovery?
**A:** Criterion met

**Q:** Please tell me: is the molecule Cn1sccc1=O at or over 80% in terms of absolute recovery?
**A:** Criterion not met

**Q:** Please tell me: is the molecule CCCCc1nc(Cl)c(CO)n1Cc1ccc(-c2ccccc2-c2nn[nH]n2)cc1 at or over 80% in terms of absolute recovery?
**A:** Criterion met

**Q:** Please tell me: is the molecule COc1ccc2c(c1)C13CCCCC1C(C2)[NH+](C)CC3 (centres undefined) at or over 80% in terms of absolute recovery?
**A:** Criterion met

**Q:** Please tell me: is the molecule NS(=O)(=O)Cc1noc2ccccc12 [Zonisamide] at or over 80% in terms of absolute recovery?
**A:** Criterion met

**Q:** Please tell me: is the molecule CCC(=[NH+]OCC=CCl)C1=C([O-])CC(C2CCOCC2)CC1=O (centres undefined) at or over 80% in terms of absolute recovery?
**A:** Criterion met

**Q:** Please tell me: is the molecule CCOc1ccc(NC(=O)OC(C)C)cc1OCC at or over 80% in terms of absolute recovery?
**A:** Criterion met

**Q:** Please tell me: is the molecule COc1cc(OC)nc(NC(=O)[N-]S(=O)(=O)N(C)S(C)(=O)=O)n1 at or over 80% in terms of absolute recovery?
**A:** Criterion met

**Q:** Please tell me: is the molecule O=C(Nc1ccccc1-c1ccc(Cl)cc1)c1cccnc1Cl at or over 80% in terms of absolute recovery?
**A:** Criterion met

**Q:** Please tell me: is the molecule CC[NH+]1CCCC1CNC(=O)c1cc(S(=O)(=O)CC)c(N)cc1OC (centres undefined) at or over 80% in terms of absolute recovery?
**A:** Criterion met

**Q:** Please tell me: is the molecule Cc1cc(C)cc(OCC2CNC(=O)O2)c1 (centres undefined) at or over 80% in terms of absolute recovery?
**A:** Criterion met

**Q:** Please tell me: is the molecule CC(C)N(C(=O)C(=O)[O-])c1ccccc1 at or over 80% in terms of absolute recovery?
**A:** Criterion not met

**Q:** Please tell me: is the molecule O=C1Nc2ccc(Cl)cc2C(c2ccccc2)=NC1O (centres undefined) at or over 80% in terms of absolute recovery?
**A:** Criterion met

**Q:** Please tell me: is the molecule CCCOc1nc2ccc(I)cc2c(=O)n1CCC at or over 80% in terms of absolute recovery?
**A:** Criterion not met

**Q:** Please tell me: is the molecule C[NH2+]C(C)C(O)c1ccccc1 (centres undefined) at or over 80% in terms of absolute recovery?
**A:** Criterion met

**Q:** Please tell me: is the molecule COc1cccc(C(=O)NN(C(=O)c2cc(C)cc(C)c2)C(C)(C)C)c1C at or over 80% in terms of absolute recovery?
**A:** Criterion met

**Q:** Please tell me: is the molecule COC(=O)c1cc(C(=O)OC)cc(S(=O)(=O)[O-])c1 [Dimethyl-5-Sulfoisophthalate] at or over 80% in terms of absolute recovery?
**A:** Criterion met

**Q:** Please tell me: is the molecule Clc1ccc(C(c2ccccc2)N2CC[NH2+]CC2)cc1 (centres undefined) [1-[(4-Chlorophenyl)phenylmethyl]piperazine] at or over 80% in terms of absolute recovery?
**A:** Criterion met

**Q:** Please tell me: is the molecule O=C1Nc2ccc(Cl)cc2C(C#CC2CC2)(C(F)(F)F)O1 (centres undefined) at or over 80% in terms of absolute recovery?
**A:** Criterion met

**Q:** Please tell me: is the molecule NC(=O)c1c(Cl)cccc1Cl at or over 80% in terms of absolute recovery?
**A:** Criterion met

**Q:** Please tell me: is the molecule CCC[NH2+]C(C)C(=O)Nc1ccccc1C (centres undefined) at or over 80% in terms of absolute recovery?
**A:** Criterion met

**Q:** Please tell me: is the molecule Cc1nnc(-c2ccccc2)c(=O)[n-]1 at or over 80% in terms of absolute recovery?
**A:** Criterion met
